B1: library; numbered along this chain (parent)
chain: MEVVDPQQLGMFTEGELMSVGMDTFIHRIDSTEVIYQPRRKRAKLIGKYLMGDLLGEGSYGKVKEVLDSETLCRRAVKILKKKKLRRIPNGEANVKKEIQLLRRLRHKNVIQLVDVLYNEEKQKMYMVMEYCVCGMQEMLDSVPEKRFPVCQAHGYFCQLIDGLEYLHSQGIVHKDIKPGNLLLTTGGTLKISDLGVAEALHPFAADDTCRTSQGSPAFQPPEIANGLDTFSGFKVDIWSAGVTLYNITTGLYPFEGDNIYKLFENIGKGSYAIPGDCGPPLSDLLKGMLEYEPAKRFSIRQIRQHSWFRKKHPPAEAPVPIPPSPDTKDRWRSMTVVPYLEDLHGADEDEDLFDIEDDIIYTQDFTVPGQVPEEEASHNGQRRGLPKAVCMNGTEAAQLSTKSRAEGRAPNPARKACSASSKIRRLSACKQQ

- Variants of: B1
- methodSummary: STK11 functional score (HeLa growth suppression), rescaled enrichment; synonymous median = 1, nonsense median = 0 (normalised score)
- testSettings: with HeLa; variant type: missense
Rule: STK11 functional score below 1 gives yes (1), anything at or above gives no (0).

{"variantIdentifier": "A76L", "classification": "yes (1)"}
{"variantIdentifier": "K41E", "classification": "no (0)"}
{"variantIdentifier": "G135H", "classification": "no (0)"}
{"variantIdentifier": "R39L", "classification": "no (0)"}

Qu. Could you please tell me whether STK11 functional score recorded for S213R is less than 1?
Ans. no (0)

Qu. Param item: L228F
Ans. no (0)

Qu. Param item: P38W
Ans. yes (1)

Qu. Param item: V66N
Ans. yes (1)

Qu. Param item: V128R
Ans. yes (1)

Qu. Param item: L54G
Ans. no (0)
